target: Muscarinic acetylcholine receptor M3 (Homo sapiens, UniProt P20309)
Sequence (P20309 whole entry): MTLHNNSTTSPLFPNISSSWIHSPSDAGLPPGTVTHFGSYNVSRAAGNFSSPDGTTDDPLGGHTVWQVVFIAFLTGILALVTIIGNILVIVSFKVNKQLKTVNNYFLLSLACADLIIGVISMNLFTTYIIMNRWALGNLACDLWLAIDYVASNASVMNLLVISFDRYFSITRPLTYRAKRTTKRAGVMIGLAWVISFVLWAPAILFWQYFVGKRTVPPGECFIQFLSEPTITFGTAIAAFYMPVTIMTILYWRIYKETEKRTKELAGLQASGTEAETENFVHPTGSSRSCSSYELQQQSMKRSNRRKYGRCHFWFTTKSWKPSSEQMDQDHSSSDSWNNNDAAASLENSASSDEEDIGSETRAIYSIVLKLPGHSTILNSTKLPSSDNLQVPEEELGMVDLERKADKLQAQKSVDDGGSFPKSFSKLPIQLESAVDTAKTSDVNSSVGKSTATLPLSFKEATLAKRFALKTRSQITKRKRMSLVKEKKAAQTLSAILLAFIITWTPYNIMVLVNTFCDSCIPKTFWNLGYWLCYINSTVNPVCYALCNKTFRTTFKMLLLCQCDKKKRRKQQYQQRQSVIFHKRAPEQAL
measurement.label: pIC50
To interpret pIC50, take it as minus log10 of a concentration measured in moles per litre.

In the examples that follow, each entry is paired with its recorded pIC50.
O=C(O[C@H]1CN2CCC1CC2)N1CCc2ccccc2[C@@H]1c1ccccc1 [SOLIFENACIN]: 7.62
O=C(OC1CN2CCC1CC2)N1CCc2ccccc2[C@@H]1c1ccc(F)cc1 (stereo partly drawn): 4.77
O=C(NC1CN2CCC1CC2)N1CCc2ccccc2[C@@H]1c1ccc(F)cc1 (stereo partly drawn): 5.00
O=C(O[C@@H]1CN2CCC1CC2)N1CCc2ccccc2[C@@H]1c1ccccc1: 6.13
O=C(OC1CN2CCC1CC2)N1CCc2ccccc2[C@@H]1c1ccc(F)cc1F (stereo partly drawn): 5.03
O=C(OC1CN2CCC1CC2)N1CCc2ccccc2[C@@H]1c1ccc(F)c(F)c1 (stereo partly drawn): 5.00
O=C(OC1CN2CCC1CC2)N1CCc2ccccc2[C@@H]1c1ccc(Cl)cc1 (stereo partly drawn): 5.83

Pending compound:
Bench note, Muscarinic acetylcholine receptor M3 (Homo sapiens, UniProt P20309): O=C(CC1CN2CCC1CC2)N1CCc2ccccc2[C@@H]1c1ccc(F)cc1 (stereo partly drawn) , pIC50 reads 4.52
